Parameter: protein stability index. Scope: all listed entries.
B1: SMOC2 (parent)
chain: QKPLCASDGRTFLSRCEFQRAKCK

Variants of: B1
RUN_DESCRIPTION: protein stability index of a GFP-peptide fusion (GPS, HEK-293T) (PSI 1-6); higher = more stable;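 note: lentivirally expressed fusions sorted by FACS into six bins by GFP to DsRed ratio, PSI derived from sequencing read proportions per bin multiplied by bin number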
EXPERIMENTAL_CONTEXT: c terminus: a fixed tail appended
API doc: respond with a numeric literal and nothing else, no unit.

VAR: Q1Y
protein stability index: 2.97

Input line: Query: protein stability index; subject: G9R
Output line: 2.94

Input line: // query: Q19M
Output line: 3.09

Source: the supplement of paper PMC10567573
